The following variants are listed with their measured protein stability index values.
B1: ZNF449 (parent)
chain: QLTGHQRIHSGEEPHKCPECGKRF

Variants of: B1
Experiment: protein stability index of a GFP-peptide fusion (GPS, HEK-293T) (PSI 1-6); higher = more stable;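 further: lentivirally expressed fusions sorted by FACS into six bins by GFP to DsRed ratio, PSI derived from sequencing read proportions per bin multiplied by bin number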
Conditions: c terminus: a fixed tail appended
assay-metric: protein stability index

# mutant-id, assay-metric, observed-measurement
measured = [
    ("P14V", "protein stability index", 4.19),
    ("L2V", "protein stability index", 4.65),
    ("L2C", "protein stability index", 5.34),
    ("G11Y", "protein stability index", 3.87),
    ("S10P", "protein stability index", 4.47),
    ("F24T", "protein stability index", 4.83),
    ("H15P", "protein stability index", 3.94),
    ("Q1L", "protein stability index", 3.84),
    ("C20Q", "protein stability index", 4.79),
    ("P18Q", "protein stability index", 4.02),
    ("I8C", "protein stability index", 4.75),
    ("G4V", "protein stability index", 3.52),
    ("P14R", "protein stability index", 3.75),
    ("H9P", "protein stability index", 4.28),
    ("I8M", "protein stability index", 4.67),
    ("R23D", "protein stability index", 4.99),
    ("E19Q", "protein stability index", 3.23),
    ("Q1P", "protein stability index", 3.96),
    ("H5A", "protein stability index", 3.17),
    ("G11M", "protein stability index", 3.21),
    ("G21W", "protein stability index", 3.73),
    ("R7K", "protein stability index", 4.31),
    ("K22A", "protein stability index", 4.72),
    ("F24I", "protein stability index", 3.65),
    ("L2M", "protein stability index", 4.86),
    ("S10W", "protein stability index", 4.31),
    ("P14W", "protein stability index", 4.5),
    ("P18M", "protein stability index", 4.14),
    ("C20P", "protein stability index", 4.61),
    ("C20M", "protein stability index", 3.82),
    ("G4P", "protein stability index", 4.14),
    ("R23Q", "protein stability index", 3.44),
    ("C17D", "protein stability index", 5.48),
    ("K16E", "protein stability index", 4.69),
    ("C17R", "protein stability index", 4.36),
    ("G21H", "protein stability index", 4.08),
    ("E13C", "protein stability index", 4.11),
    ("S10R", "protein stability index", 3.55),
    ("L2F", "protein stability index", 3.89),
    ("E13G", "protein stability index", 4.09),
    ("I8Q", "protein stability index", 4.23),
    ("P14F", "protein stability index", 4.38),
    ("C17L", "protein stability index", 4.58),
    ("T3F", "protein stability index", 4.01),
    ("C20G", "protein stability index", 4.49),
    ("H9M", "protein stability index", 3.59),
]
